Numbers sourced from PubChem BioAssay (NCI).

growth inhibition listing for selected compounds.
- protocolDetails: NCI Yeast Anticancer Drug Screen. Data for the sgs1 mgt1 strain (AID 161);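 further: 0% = growth of cultures given vehicle only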
- assaySetup: S. cerevisiae sgs1 mgt1 strain, at 50.0 µM, hits give high values
The panel holds about 79,000 compounds, 15% with a hit somewhere; the sample as a whole holds those more often.
Field format: number, assumed %, no unit text.

CCCCn1cnc2c(SC(C)C)nc(N)nc21: 17.4
O=P(O)(O)c1ccc(-c2ccc(P(=O)(O)O)cc2)cc1: 12.8
CCCC(P(c1ccccc1)c1ccccc1)P(=O)(c1ccccc1)c1ccccc1 (stereo unspecified): 39.1
O=C(NC(=S)Nc1ccc(Cl)cc1C(=O)c1ccccc1)c1ccc(Cl)cc1Cl: -8.45
COC(=O)c1ccc(/C=C2\N=C(C)OC2=O)cc1: 0.6

Ask | Answer with reported growth inhibition of CC(C)CC(=O)C(C)C(C)C (stereo unspecified)
Reply | 4.25

Ask | Answer with reported growth inhibition of CCc1ccc(C(O)C(=O)O)cc1 (stereo unspecified)
Reply | -1.6

Ask | Answer with reported growth inhibition of N#CC(C(=O)CCCC(=O)Nc1ccc(Cl)cc1Cl)c1ccccc1 (stereo unspecified)
Reply | -6.95

Ask | Answer with reported growth inhibition of COc1cc(C=O)c(-c2cc(OC)c(OC)cc2C=O)cc1OC
Reply | -8.8

Ask | Answer with reported growth inhibition of COc1cc2oc(-c3ccc(O)cc3)cc(=O)c2c(OC)c1OC
Reply | -2.35

Ask | Answer with reported growth inhibition of COc1ccc(NC(C)=O)c([N+](=O)[O-])c1
Reply | 19.3
